Target: P2X7 receptor (Mus musculus)
Construct: mP2X7 (IC50; nM); other: mP2X7; HEK-293 cells stably transfected with P2X7 receptor, Bz-ATP at EC80, Fluo-8 NW; potency
Sequence (Q9Z1M0 1-595): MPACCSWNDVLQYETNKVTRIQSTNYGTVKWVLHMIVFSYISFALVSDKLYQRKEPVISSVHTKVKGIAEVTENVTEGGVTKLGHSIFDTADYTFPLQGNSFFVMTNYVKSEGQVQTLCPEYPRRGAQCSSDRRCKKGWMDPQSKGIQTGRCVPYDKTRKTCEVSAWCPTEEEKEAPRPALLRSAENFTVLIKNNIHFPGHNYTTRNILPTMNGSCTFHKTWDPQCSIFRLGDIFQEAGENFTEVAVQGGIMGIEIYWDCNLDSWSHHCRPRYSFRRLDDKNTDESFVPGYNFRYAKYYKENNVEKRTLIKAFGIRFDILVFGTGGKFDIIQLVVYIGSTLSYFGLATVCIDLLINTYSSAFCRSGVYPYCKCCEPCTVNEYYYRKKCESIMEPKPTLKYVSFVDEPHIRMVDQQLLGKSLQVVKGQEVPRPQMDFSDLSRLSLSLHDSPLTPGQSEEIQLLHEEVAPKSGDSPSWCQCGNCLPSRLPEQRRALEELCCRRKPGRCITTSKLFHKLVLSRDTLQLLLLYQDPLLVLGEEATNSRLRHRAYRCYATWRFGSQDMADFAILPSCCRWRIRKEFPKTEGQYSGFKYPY
Assay: Screen Quest Fluo-8 No Wash Calcium Assay (Bz-ATP evoked Ca2+ influx, FLIPR)
Type: cell-based
Conditions: mP2X7; HEK-293 cells stably transfected with P2X7 receptor, Bz-ATP at EC80, Fluo-8 NW; potency ranges A-D
measured property: IC50

Hi! Can you tell me IC50 for each of these compounds?
1. O=c1onc(CC2CCC(F)(F)CC2)n1Cc1c(F)cccc1Cl
2. O=c1onc(Cc2ccccc2)n1CC1CCC(F)(F)CC1
3. O=c1onc(Cc2ccc(F)cc2)n1Cc1ccc(F)cc1

1. < 200 nM
2. 1000 to 10000 nM
3. > 10000 nM

Hi! Can you tell me IC50 for each of these compounds?
1. O=c1onc(CN2CCOc3ccccc32)n1CC1CCC(F)(F)CC1
2. O=c1onc(Cc2ccc(F)cc2Cl)n1Cc1c(F)cccc1Cl
3. O=c1onc(CC2CCCCC2)n1CC1CCCCC1
4. CC1(C)CCCCC1Cn1c(Cc2c(F)cccc2Cl)noc1=O (stereo not shown)

1: < 200 nM; 2: 1000 to 10000 nM; 3: 1000 to 10000 nM; 4: 200 to 1000 nM

Hi! Can you tell me IC50 for each of these compounds?
1. Cc1cc(F)ccc1Cn1c(CC2CCC(F)(F)CC2)noc1=O
2. O=c1onc(Cc2c(F)cccc2Cl)n1Cc1cncnc1
3. O=c1onc(C(O)c2cccc(Cl)c2Cl)n1Cc1c(F)cccc1Cl (stereo not shown)
4. O=c1onc(Cc2cccc(Cl)c2Cl)n1Cc1c(F)cccc1Cl
5. O=c1onc(Cc2ccccc2)n1CC1CCCCC1
6. O=c1onc(Cc2c(F)cccc2Cl)n1Cc1ncc(F)cn1

1000 to 10000 nM
> 10000 nM
1000 to 10000 nM
1000 to 10000 nM
1000 to 10000 nM
> 10000 nM

====

Target: P2X7 receptor (Homo sapiens)
Sequence (Q99572 whole entry): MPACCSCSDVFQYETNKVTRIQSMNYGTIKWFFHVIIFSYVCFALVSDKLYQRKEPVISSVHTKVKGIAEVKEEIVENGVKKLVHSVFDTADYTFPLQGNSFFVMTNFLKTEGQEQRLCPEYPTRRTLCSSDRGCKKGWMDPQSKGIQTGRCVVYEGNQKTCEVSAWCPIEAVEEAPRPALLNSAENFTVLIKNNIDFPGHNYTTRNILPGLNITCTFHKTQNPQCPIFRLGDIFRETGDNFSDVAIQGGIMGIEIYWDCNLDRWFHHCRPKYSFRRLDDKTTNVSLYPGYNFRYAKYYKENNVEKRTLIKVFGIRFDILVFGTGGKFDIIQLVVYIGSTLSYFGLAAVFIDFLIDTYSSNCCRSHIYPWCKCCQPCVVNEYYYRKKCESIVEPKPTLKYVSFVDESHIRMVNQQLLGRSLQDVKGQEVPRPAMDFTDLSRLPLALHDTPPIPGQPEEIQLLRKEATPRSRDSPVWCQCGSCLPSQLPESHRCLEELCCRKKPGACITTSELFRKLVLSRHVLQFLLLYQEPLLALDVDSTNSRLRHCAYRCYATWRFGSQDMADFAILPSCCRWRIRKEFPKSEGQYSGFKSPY
Experiment: Screen Quest Fluo-8 No Wash Calcium Assay (Bz-ATP evoked Ca2+ influx, FLIPR)
Format: cell-based
Design: hP2X7 (IC50; nM); other: hP2X7; HEK-293 cells stably transfected with P2X7 receptor, Bz-ATP at EC80, Fluo-8 NW; potency
Settings: hP2X7; HEK-293 cells stably transfected with P2X7 receptor, Bz-ATP at EC80, Fluo-8 NW; potency ranges A-D
Experimental: Extracellular binding of Bz-ATP to P2X7 receptor opens the channel and allows Ca2+ influx into the cells. […] Its fluorescence increases upon binding to calcium. HEK-293 cells stably transfected with P2X7 receptor were seeded overnight in growth medium at 10,000 to 20,000 cell/well in 384-well plate. […] Then 10 μL/w of tests compounds and reference antagonist A438079 at 3×-concentration were injected with the […] and the kinetic response over a period of five minutes was monitored. […]
measured property: IC50

Worked examples follow.
O=c1onc(CC2CCCCC2)n1Cc1ccc(F)cc1 : 1000 to 10000 nM
COc1cccc(Cn2c(Cc3c(F)cccc3Cl)noc2=O)c1 : 1000 to 10000 nM
O=c1onc(Cc2ccc(Cl)cc2Cl)n1Cc1c(F)cccc1Cl : 1000 to 10000 nM
O=c1onc(Cc2cccc(C(F)(F)F)c2Cl)n1CC1CCC(F)(F)CC1 : < 200 nM
CCCCn1c(Cc2c(F)cccc2Cl)noc1=O : 1000 to 10000 nM
COc1ccc(Cn2c(Cc3ccc(F)cc3)noc2=O)c(OC)c1 : 1000 to 10000 nM
O=c1onc(CN2CCC(F)(F)CC2)n1Cc1c(F)cccc1Cl : < 200 nM
O=c1onc(CC2CCC(F)(F)CC2)n1Cc1ccccc1F : 200 to 1000 nM

Below: the item to evaluate.
Please report the measured IC50 for `O=c1onc(Cc2c(F)cccc2Cl)n1Cc1ccc(C(F)(F)F)nc1` tested on P2X7 receptor (Homo sapiens).
1000 to 10000 nM

====

Target: P2X7 receptor (Rattus norvegicus, UniProt Q64663)
Construct: rP2X7 (IC50; nM); other: rP2X7; HEK-293 cells stably transfected with P2X7 receptor, Bz-ATP at EC80, Fluo-8 NW; potency
Sequence (Q64663 whole entry): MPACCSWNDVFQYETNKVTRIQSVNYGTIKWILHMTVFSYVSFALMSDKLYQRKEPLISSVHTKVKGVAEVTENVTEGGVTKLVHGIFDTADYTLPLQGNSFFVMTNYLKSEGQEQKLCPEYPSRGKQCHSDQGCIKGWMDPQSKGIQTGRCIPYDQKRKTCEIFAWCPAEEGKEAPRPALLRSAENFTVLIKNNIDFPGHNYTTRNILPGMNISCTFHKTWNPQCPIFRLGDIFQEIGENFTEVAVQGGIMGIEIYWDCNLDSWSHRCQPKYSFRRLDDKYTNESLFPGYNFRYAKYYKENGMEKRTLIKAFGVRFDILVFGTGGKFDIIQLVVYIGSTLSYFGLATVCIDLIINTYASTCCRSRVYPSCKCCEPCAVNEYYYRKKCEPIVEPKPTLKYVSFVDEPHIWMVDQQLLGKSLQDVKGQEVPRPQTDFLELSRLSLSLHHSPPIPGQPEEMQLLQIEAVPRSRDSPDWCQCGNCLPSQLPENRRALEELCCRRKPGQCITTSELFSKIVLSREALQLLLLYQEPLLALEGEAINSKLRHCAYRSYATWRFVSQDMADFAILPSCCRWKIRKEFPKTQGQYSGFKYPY
Assay: Screen Quest Fluo-8 No Wash Calcium Assay (Bz-ATP evoked Ca2+ influx, FLIPR)
Assay type: cell-based
Settings: rP2X7; HEK-293 cells stably transfected with P2X7 receptor, Bz-ATP at EC80, Fluo-8 NW; potency ranges A-D
Please provide measured IC50 for the entries that follow.

CC(c1ccccc1)n1c(Cc2ccc(F)cc2)noc1=O (stereo not drawn) [Example 10] : 1000 to 10000 nM
O=c1onc(CC2CCC(F)(F)CC2)n1CCc1ccccc1 [Example 172] : 1000 to 10000 nM
Cc1nc(C(F)(F)F)ccc1Cn1c(Cc2c(F)cccc2Cl)noc1=O [Example 64] : > 10000 nM

Hi! Can you tell me IC50 for each of these compounds?
1. O=c1onc(Cc2ccc(Cl)cc2Cl)n1CC1CCC(F)(F)CC1 [Example 159]
2. Cc1cc(Cn2c(CC3CCC(F)(F)CC3)noc2=O)n(C)n1 [Example 195]
3. O=c1onc(Cc2ccc(F)cc2)n1Cc1c(F)cccc1Cl [Example 1]
4. Cc1ccccc1Cn1c(Cc2c(F)cccc2Cl)noc1=O [Example 27]
5. O=c1onc(CC2CCC(F)(F)C2)n1Cc1ccc(F)cc1 (stereo not drawn) [Example 204]
6. O=c1onc(Cc2c(F)cccc2Cl)n1Cc1ncccn1 [Example 39]

< 200 nM
200 to 1000 nM
200 to 1000 nM
1000 to 10000 nM
> 10000 nM
> 10000 nM

====

Target: P2X7 receptor (Mus musculus)
Construct: mP2X7 (IC50; nM); other: mP2X7; HEK-293 cells stably transfected with P2X7 receptor, Bz-ATP at EC80, Fluo-8 NW; potency
Experiment: Screen Quest Fluo-8 No Wash Calcium Assay (Bz-ATP evoked Ca2+ influx, FLIPR)
Type: cell-based
Settings: mP2X7; HEK-293 cells stably transfected with P2X7 receptor, Bz-ATP at EC80, Fluo-8 NW; potency ranges A-D
Please provide measured IC50 for the entries that follow.

Hi! Can you tell me IC50 for each of these compounds?
1. CC(C)(c1c(F)cccc1Cl)c1noc(=O)n1CC1CCCCC1 [Example 121]
2. O=c1onc(CC2CCC(F)(F)CC2)n1Cc1ccccc1Cl [Example 170]
3. CCC#CCn1c(Cc2c(F)cccc2Cl)noc1=O [Example 90]
4. Cc1nn(C)c(C)c1Cc1noc(=O)n1CC1CCCCC1 [Example 214]

1: > 10000 nM; 2: 200 to 1000 nM; 3: > 10000 nM; 4: 1000 to 10000 nM

====

Please provide measured IC50 for the entries that follow.
Target: P2X7 receptor (Rattus norvegicus)
Construct: rP2X7 (IC50; nM); other: rP2X7; HEK-293 cells stably transfected with P2X7 receptor, Bz-ATP at EC80, Fluo-8 NW; potency
Experiment: Screen Quest Fluo-8 No Wash Calcium Assay (Bz-ATP evoked Ca2+ influx, FLIPR)
Format: cell-based
Settings: rP2X7; HEK-293 cells stably transfected with P2X7 receptor, Bz-ATP at EC80, Fluo-8 NW; potency ranges A-D

O=c1onc(CCc2c(F)cccc2Cl)n1CC1CCC(F)(F)CC1 : 200 to 1000 nM
O=c1onc(Cc2cccc(F)c2)n1Cc1c(F)cccc1Cl : 200 to 1000 nM
O=c1onc(Cc2ccccc2Cl)n1CC1CCC(F)(F)CC1 : < 200 nM
CC#CCn1c(Cc2c(F)cccc2Cl)noc1=O : > 10000 nM
O=c1onc(CC2CCCCC2)n1Cc1ccc(F)cc1 : 1000 to 10000 nM
O=c1onc(Cc2ccc(Cl)cc2Cl)n1Cc1ccc(F)cc1 : 1000 to 10000 nM
Cc1nn(C)c(C)c1Cc1noc(=O)n1Cc1c(F)cccc1Cl : > 10000 nM
O=c1onc(Cc2ccccc2C(F)(F)F)n1CC1CCC(F)(F)CC1 : < 200 nM

Hi! Can you tell me IC50 for each of these compounds?
1. O=c1onc(Cc2ccccc2Cl)n1Cc1c(F)cccc1Cl
2. O=c1onc(Cc2ccc(Cl)cc2Cl)n1Cc1c(F)cccc1Cl
3. O=c1onc(CC2CCC(F)(F)CC2)n1Cc1cncs1
4. O=c1onc(Cc2ccccc2)n1CC1CCCCC1

["1000 to 10000 nM", "1000 to 10000 nM", "200 to 1000 nM", "200 to 1000 nM"]

Value source: patent US11623919B2
